Please respond with reported melting point for every item in the list.

CC(O)C1C(=O)N2C(C(=O)OCc3ccccc3)=CCC12 (stereo not drawn)    94 to 99 °C
O=C(NC/C=C\COc1cc(CN2CCCCC2)ccn1)c1cc(-c2ccccc2)on1    105 to 106 °C
NS(=O)(=O)c1ccccc1CCCl    168 to 171 °C
COc1ccc(S(=O)(=O)N2CCc3cccc(-c4cccc(F)c4)c32)cc1    180 to 181 °C
O=C1N(CCCOCc2ccccc2)c2ccccc2C12COc1cc3c(cc12)OCCO3 (stereo not drawn)    37 to 38 °C
CC(=O)Nc1nc2ccc(S(=O)(=O)n3c(CCCC(=O)O)cc4cc(C(F)(F)F)ccc43)cc2s1    > 250 °C
CC(=O)CC1(C)C=NC=CN1c1ccccc1 (stereo not drawn)    67 to 68 °C
CC1(C)CC(NCCCCCCC(=O)O)CC(C)(C)N1    162 to 165 °C
Clc1ccc2c(C3CCN(CCCC4Cc5ccccc5C4)CC3)c[nH]c2c1    134 to 135 °C
CCCC(=O)Oc1ccc2sc(S(N)(=O)=O)nc2c1    132 °C

Can you give me melting point for all of these, one by one?
1. CCCc1c(C(=O)C(C)C)c2ccc(C(N)=O)cc2n1Cc1ccccc1[N+](=O)[O-]
2. Cc1ccc(C(=O)c2ccc(Cl)cc2)cc1
3. O=C1C2CCN(CC2)C1Cc1cccnc1 (stereo not drawn)

output:
1: 181 to 182 °C; 2: 129 to 130 °C; 3: 95 °C

Report melting point for each item below.
1. CC1Cc2cc(O)c(Cl)c(Cl)c2C1=O (stereo not drawn)
2. O=C(O)C1CCCN(CCC#Cc2ccccc2)C1 (stereo not drawn)
3. O=C1c2ccc([N+](=O)[O-])cc2S(=O)(=O)N1CSc1ccccc1

output:
1: 224 to 230 °C; 2: 150 to 151 °C; 3: 161 to 163 °C

The following molecules each have a reported value; give each one's melting point.
1. CC(=O)OCC(=O)C1(OC(C)=O)C(C)CC2C3CC(C)C4=CC(=O)C=CC4(C)C3C(O)CC21C (stereo not drawn)
2. O=C(O)C(=O)c1ccc(O)c([N+](=O)[O-])c1

output:
["124 to 126 °C", "139 to 140 °C"]

* * *

Kindly state melting point for each of the entries shown.

Would you mind listing melting point for each of the following compounds?
1. CCOC(=O)c1c2n(c3cc(F)c(F)cc3c1=O)CCCC2
2. CCc1nc2cc(OC)c(OC)cc2c(-c2ccc(OC)c(OC)c2)c1CO

output:
166 to 168 °C
192 to 193 °C

* * *

Readout Name: melting point

Cn1cc(C2=C(c3c4n(c5ccccc35)CC3(CCN(C(=O)OC(C)(C)C)C3)C4)C(=O)NC2=O)c2ccccc21 (stereo not drawn)    232 to 235 °C
Fc1ccc(-c2cnc3nc(C(F)(F)F)cnn23)cc1-c1ccccn1    128 to 131 °C
CC(C)(C)NC(=O)[C@@H]1C[C@H](Cl)CN1C(=O)[C@@H](O)[C@H](Cc1ccccc1)NC(=O)[C@H](CC(N)=O)NC(=O)c1cnc2ccccc2n1    132 to 134 °C
CCCn1nc2c(N)nc3ccccc3c2c1CCNC(C)=O    185 to 186 °C

Kindly give each listed record's melting point.
1. COc1cc([N+](=O)[O-])ccc1CBr
2. C=CCC(CCC(CC=C)(C(=O)c1ccc(NCCO)cc1)N(C)C)(C(=O)c1ccc(NCCO)cc1)N(C)C (stereo not drawn)
3. CCCc1nn(-c2ccc(C(F)(F)F)cn2)cc1CCCOc1ccccc1CC(=O)O

output:
1: 94 to 96 °C; 2: 95 to 96 °C; 3: 100 to 101 °C

input: Item COC(=O)c1sc2ccccc2c1O has what recorded melting point?
output: 109 to 110 °C
